Entries and their measured MIC90 follow.
# Tested on: vancomycin resistant enterococci (VRE)
# Measurement description: Broth microdilution MIC50/MIC90, VRE panel
# Assay type: cell-based
# Condition notes: Enterococcus, VRE, 10 VRE strains; read-out: MIC 90

{"Compound": "O=C(O)[C@H](Cc1ccccc1)N1C(=O)/C(=C/c2cccc(-c3ccc(Cl)c(Cl)c3)c2)SC1=S", "Target under test": "vancomycin resistant enterococci (VRE)", "MIC90 (µM)": 8}
{"Compound": "O=C(O)[C@H](Cc1ccccc1)N1C(=O)/C(=C/c2cccc(Cc3ccc(Cl)c(Cl)c3)c2)SC1=S", "Target under test": "vancomycin resistant enterococci (VRE)", "MIC90 (µM)": 8}
{"Compound": "O=C(O)[C@@H](Cc1ccccc1)N1C(=O)/C(=C/c2cccc(Oc3ccc(F)cc3)c2)SC1=S", "Target under test": "vancomycin resistant enterococci (VRE)", "MIC90 (µM)": 32}
{"Compound": "O=C(O)[C@@H](Cc1ccccc1)N1C(=O)/C(=C/c2cccc(Cc3ccccc3)c2)SC1=S", "Target under test": "vancomycin resistant enterococci (VRE)", "MIC90 (µM)": 16}
{"Compound": "CC(=O)NC[C@H]1CN(c2ccc(N3CCOCC3)c(F)c2)C(=O)O1 [Linezolid, linezolid, reference compound]", "Target under test": "vancomycin resistant enterococci (VRE)", "MIC90 (µM)": 2}
{"Compound": "O=C(O)[C@H](Cc1ccccc1)N1C(=O)/C(=C/c2cccc(Oc3ccc(Cl)c(Cl)c3)c2)SC1=S", "Target under test": "vancomycin resistant enterococci (VRE)", "MIC90 (µM)": 8}
{"Compound": "O=C(O)[C@H](Cc1ccccc1)N1C(=O)/C(=C/c2cccc(-c3ccccc3)c2)SC1=S", "Target under test": "vancomycin resistant enterococci (VRE)", "MIC90 (µM)": 16}
{"Compound": "O=C(O)[C@H](Cc1ccccc1)N1C(=O)/C(=C/c2cccc(OC/C=C/c3ccc(Cl)c(Cl)c3)c2)SC1=S", "Target under test": "vancomycin resistant enterococci (VRE)", "MIC90 (µM)": 8}
